# Test system: rodent lifetime carcinogenesis bioassay, tumor incidence TD50
# assayComment: carcinogenic potency in animals, long-term in vivo studies, CPDB compilation (AID 1745844)
# setupConditions: rat; strain Fischer 344; females; in drinking water; site: kidney; lesion: several types; types named in the paper; dosed 75 weeks; study length 130 weeks
measurementKind: TD50

Identify TD50 associated with the compound O=NN(CCO)CCO
42.2 mg/kg/day

====

# Test system: rodent lifetime carcinogenesis bioassay, tumor incidence TD50
# assayComment: carcinogenic potency in animals, long-term in vivo studies, CPDB compilation (AID 1745844)
# setupConditions: rat; strain Fischer 344; females; oral dosing; site: all sites; lesion: leukemia + lymphoma; dosed 78 weeks; study length 104 weeks
measurementKind: TD50

Identify TD50 associated with the compound COc1cc(-c2ccc(N=C=O)c(OC)c2)ccc1N=C=O
2280 mg/kg/day
